# Test target: MCL-1 (Homo sapiens (Human))
# Sequence (Q07820 whole entry): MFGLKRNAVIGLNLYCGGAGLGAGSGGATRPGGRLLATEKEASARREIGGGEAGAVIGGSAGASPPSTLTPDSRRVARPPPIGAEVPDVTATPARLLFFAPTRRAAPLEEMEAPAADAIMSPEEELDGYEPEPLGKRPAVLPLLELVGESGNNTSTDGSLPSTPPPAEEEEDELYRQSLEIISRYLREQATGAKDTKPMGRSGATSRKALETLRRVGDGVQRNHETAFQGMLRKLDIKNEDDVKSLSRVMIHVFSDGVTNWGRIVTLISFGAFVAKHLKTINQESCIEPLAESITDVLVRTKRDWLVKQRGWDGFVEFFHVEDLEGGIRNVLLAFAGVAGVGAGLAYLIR
# Method notes: Cell free Mcl-1:Bim affinity assay (fluorescence polarization competition)
# Type: binding
# Particulars: 15 nM MCL-1, 5 nM FITC-Bim, 1 hour at room temperature; class symbols; read-out: BIM_Ki
pKi: −log10 of the molar value.
Quantity: pKi

Would you kindly share the measured pKi for "CN(C)CCNC(=O)O[C@H]1/C=C/COC(C)(C)C(=O)NS(=O)(=O)c2ccc3c(c2)N(C[C@@H]2CC[C@H]21)C[C@@]1(CCCc2cc(Cl)ccc21)CO3" ? > 9.00

Given the entry "[2H]C([2H])([2H])N(C(=O)O[C@H]1/C=C/COC(C)(C)C(=O)NS(=O)(=O)c2ccc3c(c2)N(C[C@@H]2CC[C@H]21)C[C@@]1(CCCc2cc(Cl)ccc21)CO3)C([2H])([2H])[2H]" , report its measured pKi. > 9.00

Now consider the entry below.
Quick one: pKi for "CC1(C)OC/C=C/[C@H](OCCN2CCOCC2)[C@@H]2CC[C@H]2CN2C[C@@]3(CCCc4cc(Cl)ccc43)COc3ccc(cc32)S(=O)(=O)NC1=O" ? > 9.00
